Listing of entries alongside the reported tissue uptake at 120 h.
assayExplanation: Biodistribution of 177Lu-labeled αMSH analogues in mice bearing B16F10 mouse melanoma
Assay type: in vivo, C57BL/6J mice
conditionDetails: mouse, intestine, iv, total radioactivity; 120 h p.i., C57BL/6J mice, B16F10 melanoma; read-out: Biodistribution, Intestine
Only the number, expressed in %ID/g, is required.

Worked examples follow.
molecule | tissue uptake at 120 h, %ID/g
CCCC[C@H](NC(=O)CN1CCC(NC(=O)[C@H](CCCCNC(=O)CN2CCN(CC(=O)O)CCN(CC(=O)O)CCN(CC(=O)O)CC2)NC(=O)[C@H](CCC(=O)O)NC(=O)CCCc2ccc(I)cc2)CC1)C(=O)N[C@H]1CC(=O)NCCCC[C@@H](C(N)=O)N(C)C(=O)[C@H](Cc2c[nH]c3ccccc23)NC(=O)[C@H](CCCNC(=N)N)N(C)C(=O)[C@@H](Cc2ccccc2)NC(=O)[C@H](Cc2c[nH]cn2)NC1=O [^177Lu-labeled CCZ01118, metal not drawn] | 0.1
CCCC[C@H](NC(=O)CN1CCC(NC(=O)[C@H](CCCCNC(=O)CN2CCN(CC(=O)O)CCN(CC(=O)O)CCN(CC(=O)O)CC2)NC(=O)[C@H](CCC(=O)O)NC(=O)CCCc2ccc(I)cc2)CC1)C(=O)N[C@H]1CC(=O)NCCCC[C@@H](C(N)=O)NC(=O)[C@H](Cc2c[nH]c3ccccc23)NC(=O)[C@H](CCCNC(=N)N)NC(=O)[C@@H](Cc2ccccc2)NC(=O)[C@H](Cc2c[nH]cn2)NC1=O [^177Lu-labeled CCZ01082, metal not drawn] | 0.08
CCCC[C@H](NC(=O)CN1CCC(NC(=O)CN2CCN(CC(=O)O)CCN(CC(=O)O)CCN(CC(=O)O)CC2)CC1)C(=O)N[C@H]1CC(=O)NCCCC[C@@H](C(N)=O)N(C)C(=O)[C@H](Cc2c[nH]c3ccccc23)NC(=O)[C@H](CCCNC(=N)N)N(C)C(=O)[C@@H](Cc2ccccc2)NC(=O)[C@H](Cc2c[nH]cn2)NC1=O [^177Lu-labeled CCZ01106, metal not drawn] | 0.06

// returns reported tissue uptake at 120 h for input CCCC[C@H](NC(=O)CN1CCC(NC(=O)[C@H](CCCCNC(=O)CN2CCN(CC(=O)O)CCN(CC(=O)O)CCN(CC(=O)O)CC2)NC(=O)[C@H](CCC(=O)O)NC(=O)CCCc2ccc(I)cc2)CC1)C(=O)N[C@H]1CC(=O)NCCCC[C@@H](C(N)=O)N(C)C(=O)[C@H](Cc2c[nH]c3ccccc23)N(C)C(=O)[C@H](CCCNC(=N)N)N(C)C(=O)[C@@H](Cc2ccccc2)NC(=O)[C@H](Cc2c[nH]cn2)N(C)C1=O [^177Lu-labeled CCZ01088, metal not drawn]
0.43

// returns reported tissue uptake at 120 h for input CCCC[C@H](NC(=O)CN1CCC(NC(=O)CN2CCN(CC(=O)O)CCN(CC(=O)O)CCN(CC(=O)O)CC2)CC1)C(=O)N[C@H]1CC(=O)NCCCC[C@@H](C(N)=O)N(C)C(=O)[C@H](Cc2c[nH]c3ccccc23)N(C)C(=O)[C@H](CCCNC(=N)N)N(C)C(=O)[C@@H](Cc2ccccc2)NC(=O)[C@H](Cc2c[nH]cn2)N(C)C1=O [^177Lu-labeled CCZ01099, metal not drawn]
0.12

* * *

assayExplanation: Biodistribution of 177Lu-labeled αMSH analogues in mice bearing B16F10 mouse melanoma
Type: in vivo, C57BL/6J mice
conditionDetails: mouse, thyroid, iv, total radioactivity; 4 h p.i., C57BL/6J mice, B16F10 melanoma; read-out: Biodistribution, Thyroid
Listing of entries alongside the reported tissue uptake at 4 h.
Only the number, expressed in %ID/g, is required.

Worked examples follow.
compound | valueType | reportedValue
CCCC[C@H](NC(=O)CN1CCC(NC(=O)CN2CCN(CC(=O)O)CCN(CC(=O)O)CCN(CC(=O)O)CC2)CC1)C(=O)N[C@H]1CC(=O)NCCCC[C@@H](C(N)=O)N(C)C(=O)[C@H](Cc2c[nH]c3ccccc23)NC(=O)[C@H](CCCNC(=N)N)N(C)C(=O)[C@@H](Cc2ccccc2)NC(=O)[C@H](Cc2c[nH]cn2)NC1=O [^177Lu-labeled CCZ01106, metal not drawn] | tissue uptake at 4 h | 0.27
CCCC[C@H](NC(=O)CN1CCC(NC(=O)[C@H](CCCCNC(=O)CN2CCN(CC(=O)O)CCN(CC(=O)O)CCN(CC(=O)O)CC2)NC(=O)[C@H](CCC(=O)O)NC(=O)CCCc2ccc(I)cc2)CC1)C(=O)N[C@H]1CC(=O)NCCCC[C@@H](C(N)=O)N(C)C(=O)[C@H](Cc2c[nH]c3ccccc23)NC(=O)[C@H](CCCNC(=N)N)N(C)C(=O)[C@@H](Cc2ccccc2)NC(=O)[C@H](Cc2c[nH]cn2)NC1=O [^177Lu-labeled CCZ01118, metal not drawn] | tissue uptake at 4 h | 1.66

// returns reported tissue uptake at 4 h for input CCCC[C@H](NC(=O)CN1CCC(NC(=O)CN2CCN(CC(=O)O)CCN(CC(=O)O)CCN(CC(=O)O)CC2)CC1)C(=O)N[C@H]1CC(=O)NCCCC[C@@H](C(N)=O)N(C)C(=O)[C@H](Cc2c[nH]c3ccccc23)N(C)C(=O)[C@H](CCCNC(=N)N)N(C)C(=O)[C@@H](Cc2ccccc2)NC(=O)[C@H](Cc2c[nH]cn2)N(C)C1=O [^177Lu-labeled CCZ01099, metal not drawn]
0.07

* * *

Listing of entries alongside the reported tissue uptake at 4 h.
assayExplanation: Biodistribution of 177Lu-labeled αMSH analogues in mice bearing B16F10 mouse melanoma
Assay type: in vivo, C57BL/6J mice
conditionDetails: mouse, adrenal glands, iv, total radioactivity; 4 h p.i., C57BL/6J mice, B16F10 melanoma; read-out: Biodistribution, Adrenal glands
Only the number, expressed in %ID/g, is required.

compound | tissue uptake at 4 h (%ID/g)
CCCC[C@H](NC(=O)CN1CCC(NC(=O)[C@H](CCCCNC(=O)CN2CCN(CC(=O)O)CCN(CC(=O)O)CCN(CC(=O)O)CC2)NC(=O)[C@H](CCC(=O)O)NC(=O)CCCc2ccc(I)cc2)CC1)C(=O)N[C@H]1CC(=O)NCCCC[C@@H](C(N)=O)N(C)C(=O)[C@H](Cc2c[nH]c3ccccc23)N(C)C(=O)[C@H](CCCNC(=N)N)N(C)C(=O)[C@@H](Cc2ccccc2)NC(=O)[C@H](Cc2c[nH]cn2)N(C)C1=O [^177Lu-labeled CCZ01088, metal not drawn] | 0.88

// returns reported tissue uptake at 4 h for input CCCC[C@H](NC(=O)CN1CCC(NC(=O)[C@H](CCCCNC(=O)CN2CCN(CC(=O)O)CCN(CC(=O)O)CCN(CC(=O)O)CC2)NC(=O)[C@H](CCC(=O)O)NC(=O)CCCc2ccc(I)cc2)CC1)C(=O)N[C@H]1CC(=O)NCCCC[C@@H](C(N)=O)NC(=O)[C@H](Cc2c[nH]c3ccccc23)NC(=O)[C@H](CCCNC(=N)N)NC(=O)[C@@H](Cc2ccccc2)NC(=O)[C@H](Cc2c[nH]cn2)NC1=O [^177Lu-labeled CCZ01082, metal not drawn]
1.31

* * *

assayExplanation: Biodistribution of 177Lu-labeled αMSH analogues in mice bearing SK-MEL-1 human melanoma
conditionDetails: male, NRG (NOD.Cg-Rag1tm1Mom Il2rgtm1Wjl/SzJ), mouse, intestine, total radioactivity
valueType: tissue uptake at 120 h (%ID/g)
Only the number, expressed in %ID/g, is required.

Worked examples follow.
compound | reportedValue
CCCC[C@H](NC(=O)CN1CCC(NC(=O)[C@H](CCCCNC(=O)CN2CCN(CC(=O)O)CCN(CC(=O)O)CCN(CC(=O)O)CC2)NC(=O)[C@H](CCC(=O)O)NC(=O)CCCc2ccc(I)cc2)CC1)C(=O)N[C@H]1CC(=O)NCCCC[C@@H](C(N)=O)N(C)C(=O)[C@H](Cc2c[nH]c3ccccc23)NC(=O)[C@H](CCCNC(=N)N)N(C)C(=O)[C@@H](Cc2ccccc2)NC(=O)[C@H](Cc2c[nH]cn2)NC1=O [^177Lu-labeled CCZ01118, metal not drawn] | 0.08
CCCC[C@H](NC(=O)CN1CCC(NC(=O)[C@H](CCCCNC(=O)CN2CCN(CC(=O)O)CCN(CC(=O)O)CCN(CC(=O)O)CC2)NC(=O)CNC(=O)CCCc2ccc(I)cc2)CC1)C(=O)N[C@H]1CC(=O)NCCCC[C@@H](C(N)=O)N(C)C(=O)[C@H](Cc2c[nH]c3ccccc23)NC(=O)[C@H](CCCNC(=N)N)N(C)C(=O)[C@@H](Cc2ccccc2)NC(=O)[C@H](Cc2c[nH]cn2)NC1=O [^177Lu-labeled CCZ01148, metal not drawn] | 0.54

// below: tissue uptake at 120 h requested for another compound
// returns reported tissue uptake at 120 h for input CCCC[C@H](NC(=O)CN1CCC(NC(=O)[C@H](CCCCNC(=O)CN2CCN(CC(=O)O)CCN(CC(=O)O)CCN(CC(=O)O)CC2)NC(=O)CNC(=O)CCCc2ccc(-c3ccc(C)cc3)cc2)CC1)C(=O)N[C@H]1CC(=O)NCCCC[C@@H](C(N)=O)N(C)C(=O)[C@H](Cc2c[nH]c3ccccc23)NC(=O)[C@H](CCCNC(=N)N)N(C)C(=O)[C@@H](Cc2ccccc2)NC(=O)[C@H](Cc2c[nH]cn2)NC1=O [^177Lu-labeled CCZ01158, metal not drawn]
0.28
